Measured On: full-length human PRMT1 isoform 1 (GST-tagged) (Homo sapiens, UniProt Q99873)
Construct: GST-tagged PRMT1 was eluted with 50 mM Tris, 2 mM glutathione, pH 7.8, dialysed in buffer A and concentrated
Sequence (Q99873 with tags, fused parts or gaps): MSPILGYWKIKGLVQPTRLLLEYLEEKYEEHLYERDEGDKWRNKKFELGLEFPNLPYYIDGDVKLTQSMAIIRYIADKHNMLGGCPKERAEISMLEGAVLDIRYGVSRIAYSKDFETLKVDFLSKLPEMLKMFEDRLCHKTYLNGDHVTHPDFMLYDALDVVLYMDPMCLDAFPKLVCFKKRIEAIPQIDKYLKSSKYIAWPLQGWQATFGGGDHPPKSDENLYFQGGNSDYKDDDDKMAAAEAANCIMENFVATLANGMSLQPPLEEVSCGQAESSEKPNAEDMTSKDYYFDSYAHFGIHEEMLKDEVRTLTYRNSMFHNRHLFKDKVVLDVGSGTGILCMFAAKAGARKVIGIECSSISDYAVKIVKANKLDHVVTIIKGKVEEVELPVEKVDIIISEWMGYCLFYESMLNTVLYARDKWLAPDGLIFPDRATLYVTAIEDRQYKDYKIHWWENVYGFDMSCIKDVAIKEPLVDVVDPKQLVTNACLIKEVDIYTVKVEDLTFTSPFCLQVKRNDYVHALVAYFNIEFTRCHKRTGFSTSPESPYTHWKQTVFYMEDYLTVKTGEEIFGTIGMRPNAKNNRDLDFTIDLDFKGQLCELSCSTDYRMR
Assay Notes: PRMT1 biochemical assay (3H-SAM Flashplate, histone H4 36-50 peptide)
Condition: 0.5 nM PRMT1, 30 min preincubation, 20 nM peptide
Metric Name: IC50 (nM)
Numbers only; they are read as nM.

Sample answers from the record:
> print(dat)
                                   compound                               measured.on  value.observed
1  Cc1[nH]nc(C2CCC3(CC2)CC(C)(C)CO3)c1CN(C)CCN (centres unmarked)  full-length human PRMT1 isoform 1 (GST-tagged) (Homo sapiens, UniProt Q99873)            11.4
2  CC[C@]12CC[C@](CC)(C[C@H](c3n[nH]cc3CN(C)CCNC)C1)O2  full-length human PRMT1 isoform 1 (GST-tagged) (Homo sapiens, UniProt Q99873)            25.2
3       CNCCN(C)Cc1c[nH]nc1C1CCC(CO)(CO)CC1  full-length human PRMT1 isoform 1 (GST-tagged) (Homo sapiens, UniProt Q99873)            21.3

What value of IC50 has been reported for the following compound? CNCCN(C)Cc1nn[nH]c1[C@H]1CC[C@]2(CC1)CC(C)(C)CO2 59.7

Reported IC50, compound CN(CCN)Cc1nn(C)cc1[C@H]1CC[C@]2(CC1)CC(C)(C)CO2 : ____ 21.2

Which IC50 is reported for this compound? CCC1(CC)C[C@]2(CC[C@@H](c3n[nH]cc3CN(C)CCNC)CC2)OC1=O 15.2

IC50 lookup needed for CCOCC1(COCC)CCC(c2nn(C)cc2CN(C)CCNC)CC1 , thanks. 21.1

Query (compound): CNCCN(C)Cc1scnc1[C@H]1CC[C@@]2(CC1)CC(C)(C)CO2 ; field requested: IC50 4.18

###

Counter-ions that a name gives are not always drawn.
full-length human PRMT6 (Flag- and His-tagged) (Homo sapiens, UniProt Q96LA8) data, read-out pIC50
Sequence (Q96LA8 with tags, fused parts or gaps): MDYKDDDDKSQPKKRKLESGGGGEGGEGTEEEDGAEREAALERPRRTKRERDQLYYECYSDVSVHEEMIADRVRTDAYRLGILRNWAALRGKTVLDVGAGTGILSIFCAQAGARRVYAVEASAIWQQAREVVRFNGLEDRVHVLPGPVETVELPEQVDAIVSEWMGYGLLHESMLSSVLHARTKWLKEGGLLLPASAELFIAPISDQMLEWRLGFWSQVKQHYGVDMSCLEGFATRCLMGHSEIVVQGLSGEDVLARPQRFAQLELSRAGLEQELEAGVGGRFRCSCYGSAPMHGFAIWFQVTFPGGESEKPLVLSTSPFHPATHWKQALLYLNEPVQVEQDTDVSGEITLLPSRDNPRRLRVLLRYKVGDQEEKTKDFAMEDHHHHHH
On this scale, pIC50 is minus log10 of a concentration expressed in M (mol/L).

These recorded examples may help you get a feel for the data.
> print(dat)
                                   compound  value.observed
1  CNCCN(C)Cc1nocc1[C@H]1CC[C@@]2(CC1)CC(C)(C)CO2            5.88
2  CN(CCN)Cc1cn(C)nc1[C@H]1CC[C@]2(CC1)CC(C)(C)CO2            6.07
3  CN(C)CCN(C)Cc1c[nH]nc1[C@H]1CC[C@@]2(CC1)CC(C)(C)CO2            7.04
4  CNCCN(C)Cc1nn(C)nc1C1CCC2(CC1)CC(C)(C)CO2 (centres unmarked)            6.35
5  CNCCN(C)Cc1ncsc1[C@H]1CC[C@@]2(CC1)CC(C)(C)CO2            7.20
6  CNCCN(C)Cc1scnc1[C@H]1CC[C@@]2(CC1)CC(C)(C)CO2            7.74

Reported pIC50, compound CNCCN(C)Cc1c[nH]nc1C1CCC(COCC(C)C)(COCC(C)C)CC1 : ____ 7.50

Returns the measured pIC50 for the input compound. Input: CNCCN(C)Cc1ccnn1[C@H]1CC[C@]2(CC1)CC(C)(C)CO2 6.30

I would be grateful if you could share the reported pIC50 for CNCCN(C)Cc1c[nH]nc1[C@H]1CC[C@]2(CCCCO2)CC1 [compound 127, bistrifluoroacetic acid salt] . 7.63

Quick one: pIC50 of CNCCN(C)Cc1c[nH]nc1[C@H]1CC[C@@]2(CC1)COC(C)(C)C2 ? 7.40

Would you kindly share the measured pIC50 for CCCOCC1(COCCC)CCC(c2n[nH]cc2CN(C)CCNC)CC1 ? 7.83

# get_value(readout='pIC50', item= CNCCN(C)Cc1c[nH]nc1[C@H]1CC[C@]2(CCN(CCC(C)C)C2=O)CC1 ) 7.41

Request the reported pIC50 associated with CNCCN(C)Cc1c[nH]nc1C1CCC(C)(C)[C@H](CO)C1 (some centres unmarked) 7.79

What value of pIC50 has been recorded for this entry: CNCCN(C)Cc1ccnn1[C@H]1CC[C@@]2(CC1)CC(C)(C)CO2 6.89

Using the record for CNCCN(C)Cc1c(C)noc1[C@H]1CC[C@@]2(CC1)CC(C)(C)CO2 , report its pIC50. 5.94

Need pIC50, item CN(CCN)Cc1cn(C)nc1[C@H]1CC[C@@]2(CC1)CC(C)(C)CO2 6.72
